target of assay: T1, parental anti-CTLA4 antibody (9D9), murine IgG2a
T1 construct: Made at ATUM by HEK293 transient expression as murine IgG2a; reactive against murine CTLA4; also called 9D9.IgG2a; 9D9 IgG2a
T1 sequence (light, as listed by the source, chain 1 of 2): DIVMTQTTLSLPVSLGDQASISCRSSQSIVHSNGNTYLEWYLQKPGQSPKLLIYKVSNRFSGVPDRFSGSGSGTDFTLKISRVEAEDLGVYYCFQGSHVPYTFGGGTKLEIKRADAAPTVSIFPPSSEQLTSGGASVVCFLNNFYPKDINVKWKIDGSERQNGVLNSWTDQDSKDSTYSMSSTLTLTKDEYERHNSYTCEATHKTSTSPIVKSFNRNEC
T1 sequence (heavy, as listed by the source, chain 2 of 2): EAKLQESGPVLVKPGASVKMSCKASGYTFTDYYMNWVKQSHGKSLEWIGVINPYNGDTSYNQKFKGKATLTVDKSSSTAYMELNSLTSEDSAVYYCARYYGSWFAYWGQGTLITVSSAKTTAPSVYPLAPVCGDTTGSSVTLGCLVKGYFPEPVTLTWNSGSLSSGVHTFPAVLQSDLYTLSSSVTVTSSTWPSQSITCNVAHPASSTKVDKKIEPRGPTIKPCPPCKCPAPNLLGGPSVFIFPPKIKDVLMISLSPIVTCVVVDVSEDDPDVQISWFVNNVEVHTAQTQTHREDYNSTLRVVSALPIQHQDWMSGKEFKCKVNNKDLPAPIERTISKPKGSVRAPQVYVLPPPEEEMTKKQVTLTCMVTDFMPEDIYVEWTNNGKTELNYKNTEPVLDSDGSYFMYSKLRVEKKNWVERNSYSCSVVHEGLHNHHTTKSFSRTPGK
assay comment: SPR, Biacore T200, 37 C; 9D9 coupled to CM5 chip, peptide as analyte; steady-state model
value kind: Kd

GET /values?readout=Kd&item= CNLIVEGHC (Selected from the Ph.D.-C7C phage library; also called sterically occluded peptide) [masking peptide CNLIVEGHC] 11 µM
